Data credit: ChEMBL document CHEMBL4418278

biological target: Serine racemase (Homo sapiens) (UniProt Q9GZT4); assay: Inhibition of recombinant human SRR expressed in Escherichia coli assessed as reduction in conversion of L-serine to D-serine at 0.1 mM incubated for => 8 hrs in presence of PLP and recombinant D-serine dehydratase 1 by spectrophotometry relative to control
Sequence (Q9GZT4 whole entry): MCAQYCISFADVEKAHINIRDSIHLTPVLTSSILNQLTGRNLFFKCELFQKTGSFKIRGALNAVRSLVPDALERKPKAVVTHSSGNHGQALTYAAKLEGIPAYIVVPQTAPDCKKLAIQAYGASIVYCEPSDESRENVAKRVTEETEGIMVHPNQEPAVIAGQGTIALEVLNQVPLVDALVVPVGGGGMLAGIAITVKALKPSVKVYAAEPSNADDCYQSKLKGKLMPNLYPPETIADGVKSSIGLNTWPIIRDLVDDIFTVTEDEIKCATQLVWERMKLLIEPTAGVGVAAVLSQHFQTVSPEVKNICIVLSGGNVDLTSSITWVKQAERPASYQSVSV
Measured inhibition of individual entries
Give the number; % is assumed, so skip it.

Answered examples (5):
INSERT INTO results (smiles_repr, target_desc, endpoint_value) VALUES
  ('O=C(CNS(=O)(=O)Cc1ccccc1)Nc1cccc(Br)c1', 'Serine racemase (Homo sapiens) (UniProt Q9GZT4)', 63),
  ('COc1ccc(NC(=O)CNC(=O)COc2ccccc2)c(C)c1', 'Serine racemase (Homo sapiens) (UniProt Q9GZT4)', 87),
  ('O=C(Cc1ccc(F)cc1)NNC(=S)NC(=O)Cc1ccc(F)cc1', 'Serine racemase (Homo sapiens) (UniProt Q9GZT4)', 67),
  ('C[C@@H](NC(=O)CNS(=O)(=O)Cc1ccccc1)c1ccccc1', 'Serine racemase (Homo sapiens) (UniProt Q9GZT4)', 85),
  ('O=C(COc1ccc(Br)cc1)NCC(=O)NC1CCCCC1', 'Serine racemase (Homo sapiens) (UniProt Q9GZT4)', 99);

Data request: Which value of inhibition has been reported for `Cc1ccc(S(=O)(=O)NCC(=O)Nc2cccc(Br)c2)cc1` in the records?
Data returned: 52

Data request: What do you get for `Cc1ccc(S(=O)(=O)NCC(=O)NCc2ccc(Br)cc2F)cc1` ?
Data returned: 67

Data request: What do you get for `O=C(CNS(=O)(=O)Cc1ccccc1)OCc1ccccc1` ?
Data returned: 65
